# Tested on: SW480
# assay_name: Cytotoxicity against human SW480 cells assessed as cell viability after 48 hrs by MTS assay
# Type: functional, cell-based
# assay_setup: SW480, 48 h
Assign pIC50 to each entry below.
Give bare numbers, as −log10 of the molar value.

Study these solved cases before continuing.
molecule	pIC50
C=C1C(=O)[C@]23C[C@@H]1CC[C@H]2C12[C@@H](OC)O[C@@H](O)[C@@H]1C(C)(C)CC[C@@H]2OC3=O (stereo not given in full)	5.41
C=C1C(=O)[C@@]23C[C@@H]1C[C@H]1O[C@@H]4OC[C@]5([C@H](CCC(C)(C)[C@@H]45)OC2=O)[C@H]13	4.82
C=C1C(=O)[C@]23C[C@@H]1CC[C@H]2C12C(O)O[C@@H](O)[C@@H]1C(C)(C)CC[C@@H]2OC3=O (stereo not given in full)	4.83

Query molecule follows.
Challenge: What value of pIC50 has been reported for the following molecule? C=C1C(=O)[C@]23C[C@@H]1CC[C@H]2C12[C@H](OC)O[C@@H](O)[C@@H]1C(C)(C)CC[C@@H]2OC3=O (stereo not given in full)
Response given: 5.34
